Collected IC50 for Proto-oncogene tyrosine-protein kinase Src (Homo sapiens, UniProt P12931) across several studies; compounds listed below.

> print(dat)
                            compound.string  value.type   observed.value
1   Cc1cc(C)cc(Nc2nc3c(-c4cccnc4)nccn3n2)c1        IC50      0.3 to 3 µM
2  COc1ccc(C(=O)c2c[nH]c3ncc(-c4cccc(C(N)=O)c4)cc23)c(F)c1        IC50          ≤ 10 µM
3  Cc1cccc(Cl)c1C(=O)Nc1cnc2[nH]c(-c3ccccc3)nc2c1        IC50  0.005 to 0.3 µM
4  CC(C)Nc1ncccc1-c1ncnc(Nc2ccc(C(N)=O)cc2)n1        IC50        > 12.9 µM
5  CN(C)C/C=C/C(=O)N(C)c1ccc(-n2nc(-c3ccc(Cl)cc3)c3c(N)ncnc32)nc1        IC50      0.1 to 1 µM

Kindly consider the entry below.
[Q] Give the value of IC50 reported for the following: O=C1NC(=O)C2=C1c1cn(c3ccccc13)CCCC1(CCCn3cc2c2ccccc23)OCCO1
[A] > 100 µM
